// provenance: paper PMC12416549

Please respond with reported apparent Kd (screen) for every item in the list.
Target: T1, TNFR1 (Homo sapiens, UniProt P19438)
T1 chain: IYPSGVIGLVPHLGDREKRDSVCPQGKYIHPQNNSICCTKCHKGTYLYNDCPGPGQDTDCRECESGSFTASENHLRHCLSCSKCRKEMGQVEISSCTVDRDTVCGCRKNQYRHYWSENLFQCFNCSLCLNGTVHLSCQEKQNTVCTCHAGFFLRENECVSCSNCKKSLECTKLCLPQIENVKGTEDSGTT
Experiment: yeast display SC50
// note: answer is a bare numeric in nM

Incoming: Read off the recorded apparent Kd (screen) for L26W (designed binder) MTLQELLREEALRRAEAEAFRYALEWLAEKFPEQKEYLLDLAEEIESQIRSLSGVDVEDVRKFLDKEWAWVKELLAEHPAELAEVEAARAARLAELRAEVEAKVAA
Outgoing: 0.405

Incoming: Annotate the binder F63S (designed binder) MTLQELLREEALRRAEAEAFRYALELLAEKFPEQKEYLLDLAEEIESQIRSLSGVDVEDVRKSLDKEWAWVKELLAEHPAELAEVEAARAARLAELRAEVEAKVAA with its measured apparent Kd (screen).
Outgoing: 0.956

Incoming: Annotate the binder T2D (designed binder) MDLQELLREEALRRAEAEAFRYALELLAEKFPEQKEYLLDLAEEIESQIRSLSGVDVEDVRKFLDKEWAWVKELLAEHPAELAEVEAARAARLAELRAEVEAKVAA with its measured apparent Kd (screen).
Outgoing: 1.54

Incoming: Return value of apparent Kd (screen) for input Y37E (designed binder) MTLQELLREEALRRAEAEAFRYALELLAEKFPEQKEELLDLAEEIESQIRSLSGVDVEDVRKFLDKEWAWVKELLAEHPAELAEVEAARAARLAELRAEVEAKVAA , no commentary.
Outgoing: 7.78
